Data provenance is patent US9974778B2.

Biological target: Human MGAT-2 (Homo sapiens, UniProt Q3SYC2)
Construct: made in house; host or cells: Sf9 cells (membrane preparation)
Sequence (Q3SYC2 whole entry): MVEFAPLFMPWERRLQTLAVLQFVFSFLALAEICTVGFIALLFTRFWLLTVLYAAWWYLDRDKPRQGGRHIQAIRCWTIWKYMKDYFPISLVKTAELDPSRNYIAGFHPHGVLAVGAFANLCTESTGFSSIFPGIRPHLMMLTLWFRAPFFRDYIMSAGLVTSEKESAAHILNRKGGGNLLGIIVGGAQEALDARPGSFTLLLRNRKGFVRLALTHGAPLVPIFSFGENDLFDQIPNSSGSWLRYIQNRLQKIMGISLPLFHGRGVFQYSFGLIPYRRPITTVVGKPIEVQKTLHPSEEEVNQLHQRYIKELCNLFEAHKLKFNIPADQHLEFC
Assay: MGAT LCMS Assay
Type: biochemical
Conditions: human MGAT2 membranes expressed in Sf9 cells; 100 μM 2-oleoylglycerol, 15 μM oleoyl-coenzyme A; read-out: h-MGAT LCMS IC50
Protocol: Assay plates were run through a fully automated robotics system and shaken for 5 seconds every minute for a total 10 minutes. The reactions were then quenched with 120 μL of ice cold methanol containing 1 μg/mL 1,2-distearoyl-rac-glycerol as the internal standard. Plates were shaken for 2 minutes and spun down to remove protein precipitation. After the spin, samples were transferred to LC/MS compatible PCR plates. […]
attributeMeasured: IC50 (µM)

Reference set (3 entries):
# molecule, readingUnit, valueObserved
data = [
    ("CC/C=C/c1c(-c2ccc(CCCCC)cc2)[nH]c(=O)c(C(=O)Nc2ccc(OCC)cc2)c1-c1ccc(C)cc1 [Example 31]", "µM", 0.178),
    ("O=c1[nH]c(-c2ccc(OCCCCCC(F)(F)F)cc2)cc(-c2nn(CC3CC3)cc2Cl)c1-n1nn[nH]c1=O [Example 158]", "µM", 0.006),
    ("CCc1ccc(-c2cc(-c3ccc(OCCCCCC(F)(F)F)cc3)[nH]c(=O)c2C(=O)NS(C)(=O)=O)s1 [Example 101]", "µM", 0.007),
]

[P] CCOc1ccc(NC(=O)c2c(-c3ccc(C)cc3)cc(C3(F)CCCCC3)[nH]c2=O)cc1 [Example 41]
[Q] CCOc1ccc(NC(=O)c2c(-c3ccc(C)cc3)c(I)c(C3CCCCC3)[nH]c2=O)cc1 [Example 15]
Enquiry: Please indicate which entry, P or Q , has the lower recorded IC50 value. Give the label under which the chosen entry appears.
Return: Q
(Q: 0.005 µM, P: 0.036 µM)
